Tested on: A549 (lung cancer) cell line
experimentDescription: MTT cytotoxicity assay, A549
conditionsUsed: read-out: Cells viability (%) A549, 10 μM; 10 μM, 48 h, triplicate, mean ± s.e.m.

# chemicalSmiles, resultUnit, inhibition
measured = [
    ("Cc1nc2ccc(F)cc2c(=O)n1[C@H]1CC[C@H](n2c(C)nc3ccc(F)cc3c2=O)CC1", "%", 67.5),
    ("Cc1ccc2nc(C)n(-c3ccc(-n4c(C)nc5ccc(C)cc5c4=O)cc3)c(=O)c2c1", "%", 59.2),
    ("Cc1ccc2nc(C)n([C@H]3CC[C@H](n4c(C)nc5ccc(C)cc5c4=O)CC3)c(=O)c2c1", "%", 39.3),
    ("Cc1nc2ccc(F)cc2c(=O)n1-c1ccc(S(=O)(=O)c2ccc(-n3c(C)nc4ccc(F)cc4c3=O)cc2)cc1", "%", 96.5),
    ("Cc1nc2ccccc2c(=O)n1[C@H]1CC[C@H](n2c(C)nc3ccccc3c2=O)CC1", "%", 60.2),
]
